experimental system: Sortilin (Homo sapiens)
Sequence (Q99523 whole entry): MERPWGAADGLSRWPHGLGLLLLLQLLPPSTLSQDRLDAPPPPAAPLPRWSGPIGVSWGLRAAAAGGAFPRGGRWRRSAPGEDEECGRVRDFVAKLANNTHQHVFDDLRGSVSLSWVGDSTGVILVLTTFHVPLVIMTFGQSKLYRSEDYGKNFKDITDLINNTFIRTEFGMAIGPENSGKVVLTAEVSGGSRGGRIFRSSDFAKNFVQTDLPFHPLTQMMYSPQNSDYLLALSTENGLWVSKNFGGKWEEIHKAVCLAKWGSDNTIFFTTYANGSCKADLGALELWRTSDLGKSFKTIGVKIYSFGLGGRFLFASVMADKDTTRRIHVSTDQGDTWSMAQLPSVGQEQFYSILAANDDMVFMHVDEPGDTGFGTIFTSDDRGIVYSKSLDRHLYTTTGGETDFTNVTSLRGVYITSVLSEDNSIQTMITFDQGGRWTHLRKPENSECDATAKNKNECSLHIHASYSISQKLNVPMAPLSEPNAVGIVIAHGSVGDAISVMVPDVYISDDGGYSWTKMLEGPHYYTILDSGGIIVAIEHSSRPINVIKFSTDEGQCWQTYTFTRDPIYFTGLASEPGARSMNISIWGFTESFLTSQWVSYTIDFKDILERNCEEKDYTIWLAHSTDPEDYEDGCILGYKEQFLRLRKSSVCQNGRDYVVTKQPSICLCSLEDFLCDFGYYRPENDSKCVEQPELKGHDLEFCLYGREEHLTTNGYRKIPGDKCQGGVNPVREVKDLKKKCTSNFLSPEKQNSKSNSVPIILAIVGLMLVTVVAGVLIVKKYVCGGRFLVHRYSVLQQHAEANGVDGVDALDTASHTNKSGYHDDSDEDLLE
endpoint: Kd

In the examples that follow, each entry is paired with its recorded Kd.
CC(C)(C)CC[C@H](NC(=O)c1ccc(Oc2cccc(OCCOCCOCCOCCOCCOCCOCCNC(=O)CCC[C@@H]3SC[C@@H]4NC(=O)N[C@@H]43)c2)nc1)C(=O)O: 1 nM
C[C@@H]1CN(c2ncc(-c3ccc4c(n3)N(Cc3cccnc3C#N)C(C)(C)C4=O)cn2)CCN1C(=O)COCCCCCCCCNC(=O)c1cccc(Oc2ccc(C(=O)N[C@@H](CCC(C)(C)C)C(=O)O)cn2)c1: < 1 nM
CC(C)(C)CC[C@H](NC(=O)c1ccc(Oc2cccc(C(=O)NCCOCCOCCOCCOCCOCCOc3ncc(-c4ccc5c(n4)N(Cc4cccnc4C#N)C(C)(C)C5=O)cn3)c2)nc1)C(=O)O: < 1 nM

Then this compound:
query: Find Kd (Sortilin (Homo sapiens)) for the entry C[C@@H]1CN(c2ncc(-c3ccc4c(n3)N(Cc3cccnc3C#N)C(C)(C)C4=O)cn2)CCN1C(=O)COCCCCNC(=O)c1cccc(Oc2ccc(C(=O)N[C@@H](CCC(C)(C)C)C(=O)O)cn2)c1
result: < 1 nM
